Assay target: androgen receptor (AR-LBD) (Rattus norvegicus, UniProt P15207)
Construct: 5 μL of 2×AR-LBD/Fluoromone AL Red Complex contained in the kit; purchased Invitrogen
Sequence (P15207 651-882 limits assumed): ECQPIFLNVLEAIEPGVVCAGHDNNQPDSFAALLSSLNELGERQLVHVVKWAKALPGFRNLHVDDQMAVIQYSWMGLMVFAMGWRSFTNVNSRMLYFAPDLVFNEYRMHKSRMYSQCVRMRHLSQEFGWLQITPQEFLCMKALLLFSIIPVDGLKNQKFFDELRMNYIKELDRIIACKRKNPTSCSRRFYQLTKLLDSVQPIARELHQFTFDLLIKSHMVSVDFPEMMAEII
Test details: Evaluation of androgen receptor affinity (PolarScreen Androgen Receptor Competitor Assay Kit, Red; fluorescence polarization)
Condition parameters: 22° C. for 5 hours, relative to binding rate of 1 μM DHT, read-out: AR affinity (pEC50) (converted)
// EC50 lookup, one value per entry

[
  {
    "Structure string": "Cc1sc(N(Cc2ccc(F)cc2OC(F)F)c2ccc(C#N)cc2)nc1C(=O)NS(C)(=O)=O",
    "Result qualifier": "=",
    "EC50 [nM]": 63.1
  },
  {
    "Structure string": "CS(=O)(=O)NC(=O)c1nc(N(Cc2ccc(Cl)cn2)c2ccc(C(F)(F)F)nc2)sc1Br",
    "Result qualifier": "=",
    "EC50 [nM]": 200
  },
  {
    "Structure string": "Cc1ccccc1CN(c1ccc(C#N)cc1)c1nc(C(=O)NS(C)(=O)=O)c(Cl)s1",
    "Result qualifier": "=",
    "EC50 [nM]": 79.4
  },
  {
    "Structure string": "CS(=O)(=O)NC(=O)c1nc(N(Cc2cccc(F)c2)c2ccc(C#N)cc2)sc1Br",
    "Result qualifier": "=",
    "EC50 [nM]": 50.1
  },
  {
    "Structure string": "Cc1sc(N(Cc2ccc(OC(F)(F)F)cc2)c2ccc(C#N)cc2)nc1C(=O)NS(=O)(=O)CCCO",
    "Result qualifier": "=",
    "EC50 [nM]": 25.1
  },
  {
    "Structure string": "CS(=O)(=O)NC(=O)c1nc(N(Cc2cc3ccccc3s2)c2ccc(C#N)cc2)sc1Cl",
    "Result qualifier": "=",
    "EC50 [nM]": 50.1
  },
  {
    "Structure string": "COCCCS(=O)(=O)NC(=O)c1nc(N(CCc2ccc(C#N)cc2)Cc2ccc(F)cc2)oc1C",
    "Result qualifier": "=",
    "EC50 [nM]": 100
  },
  {
    "Structure string": "Cc1ccn(CCN(Cc2ccccc2)c2nc(C(=O)NS(C)(=O)=O)c(C)s2)n1",
    "Result qualifier": ">",
    "EC50 [nM]": 2000
  },
  {
    "Structure string": "Cc1nc(CN(CCc2ccc(Cl)cc2)c2nc(C(=O)NS(C)(=O)=O)c(C)o2)cs1",
    "Result qualifier": "=",
    "EC50 [nM]": 200
  },
  {
    "Structure string": "Cc1sc(N(CCc2ccc(Cl)cc2)Cc2ccccc2)nc1C(=O)NS(C)(=O)=O",
    "Result qualifier": "=",
    "EC50 [nM]": 31.6
  },
  {
    "Structure string": "Cc1sc(N(CCc2ccccc2Cl)c2ccc(C#N)cc2)nc1C(=O)NS(C)(=O)=O",
    "Result qualifier": "=",
    "EC50 [nM]": 100
  },
  {
    "Structure string": "CS(=O)(=O)NC(=O)c1nc(N(Cc2ccccc2Cl)c2ccc(C#N)cc2)sc1Cl",
    "Result qualifier": "=",
    "EC50 [nM]": 63.1
  },
  {
    "Structure string": "COCCCS(=O)(=O)NC(=O)c1nc(N(Cc2ncc(C(F)(F)F)cc2F)c2ccc(C#N)cc2)sc1C",
    "Result qualifier": "=",
    "EC50 [nM]": 126
  },
  {
    "Structure string": "Cc1sc(N(Cc2ccc(-c3ccccc3F)cn2)c2ccc(C#N)cc2)nc1C(=O)NS(C)(=O)=O",
    "Result qualifier": "=",
    "EC50 [nM]": 79.4
  },
  {
    "Structure string": "C=CCCN(c1ccc(C#N)cc1)c1nc(C(=O)NS(C)(=O)=O)c(C)s1",
    "Result qualifier": "=",
    "EC50 [nM]": 1260
  },
  {
    "Structure string": "Cc1sc(N(Cc2ccc3ncccc3c2)c2ccc(C#N)cc2)nc1C(=O)NS(C)(=O)=O",
    "Result qualifier": "=",
    "EC50 [nM]": 251
  }
]
